As shown below, each of these compounds has a reported GI50 value.
system: Leukemia cell lines; experiment: NCI in vitro cytotoxicity, whole panel; format: cell-based; details: Homo sapiens; exposure period of at least 48 hrs; read-out: GI50, range over leukemia cell lines

Example entries begin here.
| compound | GI50 |
| --- | --- |
| COc1cc(C(=O)/C=C/c2c(-c3ccc(F)cc3)nc3sccn23)cc(OC)c1OC | 1550 to 2230 nM |
| COc1cc(C(=O)/C=C/c2c(C(F)(F)F)nc3sccn23)cc(OC)c1OC | 540 to 1920 nM |

Attention now turns to another entry.
input: Endpoint output: GI50 of COc1cc(C(=O)/C=C/c2c(-c3ccc(F)cc3)nc3sc(C)cn23)cc(OC)c1OC [Compound 19e] . Value?
output: 800 to 7190 nM
